Molecular target: Mucosa-associated lymphoid tissue lymphoma translocation protein 1 (Homo sapiens) (UniProt Q9UDY8)
Assay: Inhibition of MALT1 (unknown origin) at 25 uM relative to control
Endpoint: inhibition (%)

A: CNC(=O)c1cc(-c2ccc(Cl)cc2)n(C2CCCCC2)n1
B: CNC(=O)c1cc(-c2ccco2)n(-c2ccc(Cl)cc2)n1
Form field 'greater inhibition' accepts A or B ; which applies? Which one? Tell me its label.
A
(A: 63%, B: 20%)

I: CNC(=O)c1cc(-c2ccoc2)n(-c2ccc(Cl)cc2)n1
II: CNC(=O)c1cc(-c2ccc(Cl)cc2)n(-c2ccccc2Cl)n1
Form field 'greater inhibition' accepts I or II ; which applies? Which one? Tell me its label.
II

a: CNC(=O)c1cc(-c2ccc(C(F)(F)F)cc2)n(-c2ccc(Cl)cc2)n1
b: CNC(=O)c1cc(-c2ccc(Cl)cc2)n(-c2ccc(Cl)cc2)n1
Kindly identify the item with the lower inhibition figure among these two: a and b Which one? Tell me its label.
a

P: CNC(=O)c1cc(-c2cccc(Cl)c2)n(-c2ccc(Cl)cc2)n1
Q: CNC(=O)c1cc(-c2ccsc2)n(-c2ccc(Cl)cc2)n1
Form field 'greater inhibition' accepts P or Q ; which applies? Which one? Tell me its label.
P
(P: 43%, Q: 26%)

----------
Molecular target: Mucosa-associated lymphoid tissue lymphoma translocation protein 1 (Homo sapiens, UniProt Q9UDY8)
Sequence (Q9UDY8 whole entry): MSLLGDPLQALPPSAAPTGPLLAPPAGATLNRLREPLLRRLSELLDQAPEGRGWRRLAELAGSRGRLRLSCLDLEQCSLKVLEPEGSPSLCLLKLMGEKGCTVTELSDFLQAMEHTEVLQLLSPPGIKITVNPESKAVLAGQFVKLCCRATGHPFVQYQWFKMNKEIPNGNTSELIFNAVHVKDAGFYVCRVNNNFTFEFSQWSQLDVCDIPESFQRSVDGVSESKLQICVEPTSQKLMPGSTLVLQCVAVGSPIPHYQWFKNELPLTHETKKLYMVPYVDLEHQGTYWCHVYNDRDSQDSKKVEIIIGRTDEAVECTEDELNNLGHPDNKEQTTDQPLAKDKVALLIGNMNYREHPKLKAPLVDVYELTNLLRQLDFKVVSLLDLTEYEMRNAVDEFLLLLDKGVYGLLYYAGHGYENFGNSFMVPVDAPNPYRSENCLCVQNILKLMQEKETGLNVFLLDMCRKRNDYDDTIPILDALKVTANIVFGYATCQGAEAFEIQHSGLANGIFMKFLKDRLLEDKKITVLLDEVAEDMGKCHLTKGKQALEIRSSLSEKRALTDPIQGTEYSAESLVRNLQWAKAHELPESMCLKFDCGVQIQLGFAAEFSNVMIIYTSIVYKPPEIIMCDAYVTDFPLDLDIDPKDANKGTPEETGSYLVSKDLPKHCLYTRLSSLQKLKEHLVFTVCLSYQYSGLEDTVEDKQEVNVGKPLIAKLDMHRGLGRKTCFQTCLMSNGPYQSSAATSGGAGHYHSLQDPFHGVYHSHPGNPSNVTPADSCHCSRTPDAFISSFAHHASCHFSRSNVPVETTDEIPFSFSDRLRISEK
Endpoint: IC50 (µM)

NCCCNC(=O)c1cc(-c2ccc(Cl)cc2)n(-c2ccc(Cl)cc2)n1; 7.39
CN(C)C1CCN(C(=O)c2cc(-c3ccc(Cl)cc3)n(-c3ccc(Cl)cc3)n2)C1 (configuration not stated); 10.6
O=C(NCCCO)c1cc(-c2ccc(Cl)cc2)n(-c2ccc(Cl)cc2)n1; 12.4
CNC(=O)c1cc(-c2ccccc2)n(-c2ccc(Cl)cc2)n1; 16.8
CN(C)CCCCNC(=O)c1cc(-c2ccc(Cl)cc2)n(-c2ccc(Cl)cc2)n1; 2.22

A: NCCNC(=O)c1cc(-c2ccc(Cl)cc2)n(-c2ccc(Cl)cc2)n1
B: CS(=O)(=O)NCCNC(=O)c1cc(-c2ccc(Cl)cc2)n(-c2ccc(Cl)cc2)n1
C: CNC(=O)c1cc(-c2ccc(OC)cc2)n(-c2ccc(Cl)cc2)n1
D: CN(C)CCNC(=O)c1cc(-c2ccc(Cl)cc2)n(-c2ccc(Cl)cc2)n1
E: O=C(NCC1COCCN1)c1cc(-c2ccc(Cl)cc2)n(-c2ccc(Cl)cc2)n1 (configuration not stated)
// ranking: key=IC50, reverse=True Reply with the item labels sorted in the order that was asked for.
C, B, A, E, D

----------
Target: Mucosa-associated lymphoid tissue lymphoma translocation protein 1 (Homo sapiens) (UniProt Q9UDY8)
Sequence (whole entry): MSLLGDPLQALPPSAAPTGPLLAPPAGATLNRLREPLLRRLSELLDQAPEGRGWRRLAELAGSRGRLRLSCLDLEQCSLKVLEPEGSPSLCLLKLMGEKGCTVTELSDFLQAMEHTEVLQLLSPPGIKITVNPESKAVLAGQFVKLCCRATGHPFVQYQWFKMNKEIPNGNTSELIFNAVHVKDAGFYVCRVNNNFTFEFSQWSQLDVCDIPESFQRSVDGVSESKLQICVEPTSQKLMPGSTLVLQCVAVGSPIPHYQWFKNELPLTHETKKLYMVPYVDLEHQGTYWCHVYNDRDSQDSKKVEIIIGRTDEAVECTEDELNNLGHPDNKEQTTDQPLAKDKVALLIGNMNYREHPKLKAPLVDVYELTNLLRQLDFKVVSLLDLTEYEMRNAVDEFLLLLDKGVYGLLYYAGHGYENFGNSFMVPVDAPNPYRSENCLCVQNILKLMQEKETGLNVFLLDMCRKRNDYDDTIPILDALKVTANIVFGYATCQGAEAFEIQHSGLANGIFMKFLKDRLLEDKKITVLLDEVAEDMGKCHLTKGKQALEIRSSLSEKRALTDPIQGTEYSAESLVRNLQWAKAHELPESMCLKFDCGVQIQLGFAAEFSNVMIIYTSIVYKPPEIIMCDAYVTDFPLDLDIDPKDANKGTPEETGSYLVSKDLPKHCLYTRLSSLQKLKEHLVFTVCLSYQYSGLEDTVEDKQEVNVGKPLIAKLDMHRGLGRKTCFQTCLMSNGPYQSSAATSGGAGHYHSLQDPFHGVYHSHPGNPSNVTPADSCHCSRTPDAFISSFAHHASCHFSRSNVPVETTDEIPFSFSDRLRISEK
Experiment: Inhibition of MALT1 (unknown origin) at 25 uM relative to control
Endpoint: inhibition (%)

CNC(=O)c1cc(-c2ccc(OC(F)(F)F)cc2)n(-c2ccc(Cl)cc2)n1; 38

P: CNC(=O)c1cc(-c2ccc(S(C)(=O)=O)cc2)n(-c2ccc(Cl)cc2)n1
Q: CNC(=O)c1cc(-c2ccc(CO)cc2)n(-c2ccc(Cl)cc2)n1
R: CNC(=O)c1cc(-c2ccc(C#N)cc2)n(-c2ccc(Cl)cc2)n1
S: CNC(=O)c1cc(-c2ccc(F)cc2)n(-c2ccc(Cl)cc2)n1
Put the items in order so that reported inhibition rises from first to last. Reply with the item labels sorted in the order that was asked for.
P, Q, R, S

----------
Molecular target: Mucosa-associated lymphoid tissue lymphoma translocation protein 1 (Homo sapiens, UniProt Q9UDY8)
pIC50: −log10 of the molar value.
Endpoint: pIC50

Some compounds with recorded pIC50:
CN1CCCC(NC(=O)c2cc(-c3ccc(Cl)cc3)n(-c3ccc(Cl)cc3)n2)C1 (stereo not given); 5.77
CNCCNC(=O)c1cc(-c2ccc(Cl)cc2)n(-c2ccc(Cl)cc2)n1; 6.10

1: CN(C)C(=O)c1cc(-c2ccc(Cl)cc2)n(-c2ccc(Cl)cc2)n1
2: CCN1CCC[C@@H]1CNC(=O)c1cc(-c2ccc(Cl)cc2)n(-c2ccc(Cl)cc2)n1
3: O=C(NCCO)c1cc(-c2ccc(Cl)cc2)n(-c2ccc(Cl)cc2)n1
// ranking: key=pIC50, reverse=True Reply with the item labels sorted in the order that was asked for.
2, 3, 1
(2: 5.68, 3: 5.18, 1: 4.67)

P: CN(C)CCCNC(=O)c1cc(-c2ccc(Cl)cc2)n(-c2ccc(Cl)cc2)n1
Q: CNC(=O)c1cc(-c2ccc(Cl)cc2)n(Cc2ccccc2)n1
Form field 'greater pIC50' accepts P or Q ; which applies? Which one? Tell me its label.
P
(P: 5.58, Q: 4.79)

----------
Biological target: Mucosa-associated lymphoid tissue lymphoma translocation protein 1 (Homo sapiens)
Sequence (Q9UDY8 whole entry): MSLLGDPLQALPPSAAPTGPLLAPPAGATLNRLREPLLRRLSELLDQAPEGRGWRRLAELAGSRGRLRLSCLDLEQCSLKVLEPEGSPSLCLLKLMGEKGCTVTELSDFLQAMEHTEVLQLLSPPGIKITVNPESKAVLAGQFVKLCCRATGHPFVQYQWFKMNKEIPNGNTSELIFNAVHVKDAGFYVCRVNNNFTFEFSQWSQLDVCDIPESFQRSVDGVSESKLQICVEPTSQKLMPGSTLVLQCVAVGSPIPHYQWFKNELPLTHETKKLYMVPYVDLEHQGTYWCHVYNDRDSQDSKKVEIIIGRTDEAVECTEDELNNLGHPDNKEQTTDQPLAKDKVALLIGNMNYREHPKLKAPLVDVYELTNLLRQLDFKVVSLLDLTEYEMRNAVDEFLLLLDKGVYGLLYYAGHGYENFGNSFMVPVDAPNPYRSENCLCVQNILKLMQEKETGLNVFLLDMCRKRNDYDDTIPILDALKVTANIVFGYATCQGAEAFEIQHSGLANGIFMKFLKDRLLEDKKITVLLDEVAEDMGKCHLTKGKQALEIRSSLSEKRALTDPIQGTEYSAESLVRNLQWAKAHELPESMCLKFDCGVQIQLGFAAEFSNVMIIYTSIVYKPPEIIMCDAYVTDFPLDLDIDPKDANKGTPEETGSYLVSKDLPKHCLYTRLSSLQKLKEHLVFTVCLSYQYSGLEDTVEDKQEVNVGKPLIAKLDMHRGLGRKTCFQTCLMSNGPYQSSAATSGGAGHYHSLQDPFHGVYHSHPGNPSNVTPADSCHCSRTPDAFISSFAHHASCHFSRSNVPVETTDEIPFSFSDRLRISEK
Test: Inhibition of MALT1 (unknown origin)
Endpoint: IC50 (µM)

Some molecules with recorded IC50:
CN1CCC(O)CC1CNC(=O)c1cc(-c2ccc(Cl)cc2)n(-c2ccc(Cl)cc2)n1 (stereo not given); 0.993
NC(=O)CCNC(=O)c1cc(-c2ccc(Cl)cc2)n(-c2ccc(Cl)cc2)n1; 13.4
CSc1ccc2c(c1)N(CCC1CCCCN1C)c1ccccc1S2 (stereo not given) [THIORIDAZINE]; 3.43

A: CNC(=O)c1cc(-c2ccc(Cl)cc2)n(-c2ccc(Cl)cc2)n1
B: CC(=O)NCCNC(=O)c1cc(-c2ccc(Cl)cc2)n(-c2ccc(Cl)cc2)n1
C: CN1CCOC[C@H]1CNC(=O)c1cc(-c2ccc(Cl)cc2)n(-c2ccc(Cl)cc2)n1
D: CNC(=O)c1cc(-c2ccc(Cl)cc2)n(-c2ccccc2)n1
E: CN1CCCCC1CNC(=O)c1cc(-c2ccc(Cl)cc2)n(-c2ccc(Cl)cc2)n1 (stereo not given)
// ranking: key=IC50, reverse=True Reply with the item labels sorted in the order that was asked for.
D, A, B, C, E
(D: 19.8 µM, A: 7.01 µM, B: 3.3 µM, C: 2.01 µM, E: 0.521 µM)
